Assay: Half life in CD rat at 0.5 mg/kg, iv by LC/MS/MS analysis
Type: ADME, organism-based
Set-up: dose 0.5 mg/kg, route intravenous
Conditions: in vivo
# half-life annotations
Enter your answer as a number in h; do not include the unit.

>  <SUBSTANCE_SMILES>
Fc1cccc(-c2nc3cnn(Cc4cc(-c5ccc(C(F)(F)F)cc5C(F)(F)F)no4)cc-3n2)c1F

>  <UNIT_ABBREVIATION>
h

>  <half-life>
3.1

$$$$

Please find the next molecule below.
## Input For "Fc1cccc(-c2nc3cnn(Cc4ccc(-c5ccc(C(F)(F)F)cc5C(F)(F)F)nc4)cc-3n2)c1F" , write its half-life.
## Output 3.14

Origin of values: ChEMBL document CHEMBL3120081
